assay: Inhibitory activity expressed as the concentration required to inhibit platelet-activating factor (PAF) induced maximum aggregation by 50%
pIC50: −log10 of the molar value.
readout-type: pIC50

# compound, pIC50
records = [
    ("CCCCCCCCCCCCCCCC1OCC(COC(=O)CCCCC[n+]2ccsc2)O1 (stereo not given)", 5.52),
    ("CCCCCCCCCCCCCCCCCCOCC1COC(COC(=O)CCCCC[n+]2ccsc2)C1 (stereo not given)", 5.04),
    ("CCCCCCCCCCCCCCCCOCC1COC(COC(=O)N(Cc2cccc[n+]2CC)C(=O)OCC)C1 (stereo not given)", 7.14),
    ("CCCCCCCCCCCCCCCCOCC1OCC(COC(=O)N(Cc2cccc[n+]2CC)C(C)=O)O1 (stereo not given)", 7.08),
    ("CCCCCCCCCCCCCCCCOCC1CC(COCCCCCC[n+]2ccsc2)CO1 (stereo not given)", 5.85),
]

A. CC1OCC(COC(=O)CCCCC[n+]2ccsc2)O1 (stereo not given)
B. CCCCCCCCCCCCCCOCC1COC(COCCCCCC[n+]2ccsc2)C1 (stereo not given)
C. CCCCCCCCCCCCCCCCOCC1OCC(COC(=O)CCCCC[n+]2ccsc2)O1 (stereo not given)
Asked: List items by pIC50 in falling order. # format: label list in the order the request specifies
Given back: B, C, A
(B: 5.85, C: 5.31, A: 3.82)
